target: melanocortin-1 receptor (human, UniProt Q01726 1-317); experiment: cell-based or functional assay
Sequence (Q01726 whole entry): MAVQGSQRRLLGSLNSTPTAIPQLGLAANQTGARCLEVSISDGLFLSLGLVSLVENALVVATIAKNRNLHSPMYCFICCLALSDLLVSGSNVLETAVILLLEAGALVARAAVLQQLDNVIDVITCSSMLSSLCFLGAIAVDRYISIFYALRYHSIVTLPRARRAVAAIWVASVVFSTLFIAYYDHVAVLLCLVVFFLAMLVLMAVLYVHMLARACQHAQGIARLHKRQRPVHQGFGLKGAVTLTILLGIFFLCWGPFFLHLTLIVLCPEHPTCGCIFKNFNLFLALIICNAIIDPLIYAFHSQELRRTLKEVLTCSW
Bridge positions count the residues as written; N and C are the ends. Square brackets hold non-standard residues; d marks the D form. dPhe(4-F) = N[C@H](Cc1ccc(F)cc1)C(=O)O; hCys = N[C@@H](CCS)C(=O)O
Definition: the class of an entry is the range in category 1 (below 5 ratio), category 2 (5 ratio to below 20 ratio), category 3 (20 ratio or more) that contains its Ratios of EC50 values MC 1/4 (MC1R against MC4R).

>  <binder>
Ac-RC[dI]H[dF]RWC-NH2 (disulfide 2-8) [Ac-Arg-cyclo[Cys-D-Ile-His-D-Phe-Arg-Trp-Cys]-NH2]

>  <answer_label>
category 1

$$$$

// return the class label for Ac-RC[dA]N[dF]RWC-NH2 (disulfide 2-8; SMILES CC(=O)N[C@@H](CCCNC(=N)N)C(=O)N[C@H]1CSSC[C@@H](C(N)=O)NC(=O)[C@H](Cc2c[nH]c3ccccc23)NC(=O)[C@H](CCCNC(=N)N)NC(=O)[C@@H](Cc2ccccc2)NC(=O)[C@H](CC(N)=O)NC(=O)[C@@H](C)NC1=O) [Ac-Arg-cyclo[Cys-D-Ala-Asn-D-Phe-Arg-Trp-Cys]-NH2]
category 3

Can you check Ac-R[hCys][dA][dF]RWC-NH2 (disulfide 2-7; SMILES CC(=O)N[C@@H](CCCNC(=N)N)C(=O)N[C@H]1CCSSC[C@@H](C(N)=O)NC(=O)[C@H](Cc2c[nH]c3ccccc23)NC(=O)[C@H](CCCNC(=N)N)NC(=O)[C@@H](Cc2ccccc2)NC(=O)[C@@H](C)NC1=O) [Ac-Arg-cyclo[hCys-D-Ala-D-Phe-Arg-Trp-Cys]-NH2] next?
category 3

Can you check Ac-RC[dA]W[dF]RWC-NH2 (disulfide 2-8; SMILES CC(=O)N[C@@H](CCCNC(=N)N)C(=O)N[C@H]1CSSC[C@@H](C(N)=O)NC(=O)[C@H](Cc2c[nH]c3ccccc23)NC(=O)[C@H](CCCNC(=N)N)NC(=O)[C@@H](Cc2ccccc2)NC(=O)[C@H](Cc2c[nH]c3ccccc23)NC(=O)[C@@H](C)NC1=O) [Ac-Arg-cyclo[Cys-D-Ala-Trp-D-Phe-Arg-Trp-Cys]-NH2] next?
category 2

Can you check Ac-RC[dA]Q[dF]RWC-NH2 (disulfide 2-8; SMILES CC(=O)N[C@@H](CCCNC(=N)N)C(=O)N[C@H]1CSSC[C@@H](C(N)=O)NC(=O)[C@H](Cc2c[nH]c3ccccc23)NC(=O)[C@H](CCCNC(=N)N)NC(=O)[C@@H](Cc2ccccc2)NC(=O)[C@H](CCC(N)=O)NC(=O)[C@@H](C)NC1=O) [Ac-Arg-cyclo[Cys-D-Ala-Gln-D-Phe-Arg-Trp-Cys]-NH2] next?
category 3

Can you check Ac-RC[dA]P[dPhe(4-F)]RWC-NH2 (disulfide 2-8; SMILES CC(=O)N[C@@H](CCCNC(=N)N)C(=O)N[C@H]1CSSC[C@@H](C(N)=O)NC(=O)[C@H](Cc2c[nH]c3ccccc23)NC(=O)[C@H](CCCNC(=N)N)NC(=O)[C@@H](Cc2ccc(F)cc2)NC(=O)[C@@H]2CCCN2C(=O)[C@@H](C)NC1=O) [Ac-Arg-cyclo[Cys-D-Ala-Pro-D-Phe(p-F)-Arg-Trp-Cys]-NH2] next?
category 2

Can you check Ac-RC[dA]R[dF]RWC-NH2 (disulfide 2-8; SMILES CC(=O)N[C@@H](CCCNC(=N)N)C(=O)N[C@H]1CSSC[C@@H](C(N)=O)NC(=O)[C@H](Cc2c[nH]c3ccccc23)NC(=O)[C@H](CCCNC(=N)N)NC(=O)[C@@H](Cc2ccccc2)NC(=O)[C@H](CCCNC(=N)N)NC(=O)[C@@H](C)NC1=O) [Ac-Arg-cyclo[Cys-D-Ala-Arg-D-Phe-Arg-Trp-Cys]-NH2] next?
category 1

Can you check Ac-RC[dA]Y[dF]RWC-NH2 (disulfide 2-8; SMILES CC(=O)N[C@@H](CCCNC(=N)N)C(=O)N[C@H]1CSSC[C@@H](C(N)=O)NC(=O)[C@H](Cc2c[nH]c3ccccc23)NC(=O)[C@H](CCCNC(=N)N)NC(=O)[C@@H](Cc2ccccc2)NC(=O)[C@H](Cc2ccc(O)cc2)NC(=O)[C@@H](C)NC1=O) [Ac-Arg-cyclo[Cys-D-Ala-Tyr-D-Phe-Arg-Trp-Cys]-NH2] next?
category 2
